Where do these numbers come from? They come from patent US11377442B2.

Molecular target: NR2F6 (Homo sapiens, UniProt P10588)
Construct: expressed in transfected cells; also transient transfection
Experiment: NR2F6 agonist screening, Firefly signal cmpd/DMSO
Format: cell-based
Conditions: Table 9; repeat 2
Please provide measured Firefly, cmpd/DMSO repeat 2 for the entries that follow.
Answers are plain numbers.

// worked examples, Firefly, cmpd/DMSO repeat 2 included
smiles-repr	measured-number
COc1cccc2cc(S(=O)(=O)c3cc(C)cc(C)c3)c(=O)oc12	1.3
CCOc1cccc2cc(S(=O)(=O)c3ccc(F)c(C)c3)c(=O)oc12	1.8
COc1cccc2cc(S(=O)(=O)c3cccc(Cl)c3)c(=O)oc12	1.5

Kindly consider the entry below.
input: I am curious: what Firefly, cmpd/DMSO repeat 2 value has been reported for CCOc1cccc2cc(S(=O)(=O)c3ccc(Br)cc3)c(=O)oc12 ?
output: 2.2

###

Molecular target: NR2F6 (Homo sapiens, UniProt P10588)
Construct: expressed in transfected cells; also transient transfection
Sequence (P10588 1-404): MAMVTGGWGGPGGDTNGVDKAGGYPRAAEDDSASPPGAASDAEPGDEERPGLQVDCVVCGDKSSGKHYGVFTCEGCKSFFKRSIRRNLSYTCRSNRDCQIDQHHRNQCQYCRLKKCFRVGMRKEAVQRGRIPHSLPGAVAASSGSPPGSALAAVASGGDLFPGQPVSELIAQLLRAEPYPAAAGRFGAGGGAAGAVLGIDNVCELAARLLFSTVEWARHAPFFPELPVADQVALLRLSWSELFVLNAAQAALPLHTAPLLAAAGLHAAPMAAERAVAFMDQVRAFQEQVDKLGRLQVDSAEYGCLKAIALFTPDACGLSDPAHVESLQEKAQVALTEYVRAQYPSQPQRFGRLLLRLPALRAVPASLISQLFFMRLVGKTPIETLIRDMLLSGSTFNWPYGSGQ
Assay: NR2F6 agonist screening, Firefly signal cmpd/DMSO
Type: cell-based
Conditions: F4; 10% FBS; 2 uM
Please provide measured Firefly, F4, 10% FBS, cmpd/DMSO (mean) for the entries that follow.

// worked examples, Firefly, F4, 10% FBS, cmpd/DMSO (mean) included
compound	study-system	result
CCC(C)N[C@H]1CS(=O)(=O)C[C@@H]1S(=O)(=O)c1ccc(C)cc1 (stereo partly shown) [Compound D113]	NR2F6 (Homo sapiens, UniProt P10588)	1.5
O=S1(=O)C[C@H](NC2CCCC2)[C@@H](S(=O)(=O)c2ccc(F)cc2)C1 [Compound D114]	NR2F6 (Homo sapiens, UniProt P10588)	1.1
C[C@@H]1C[C@H](C)CN([C@H]2CS(=O)(=O)C[C@@H]2S(=O)(=O)c2ccccc2)C1 [Compound D112]	NR2F6 (Homo sapiens, UniProt P10588)	1.2

Quick one: give me Firefly, F4, 10% FBS, cmpd/DMSO (mean) for each item below, same order please.
1. O=S1(=O)C[C@H](NCCc2cccs2)[C@@H](S(=O)(=O)c2ccc(Cl)cc2)C1 [Compound D128]
2. CC(C)CCN[C@H]1CS(=O)(=O)C[C@@H]1S(=O)(=O)c1ccc(Cl)cc1 [Compound D131]
3. O=S1(=O)C[C@H](NC2CCCCCC2)[C@@H](S(=O)(=O)c2ccc(Cl)cc2)C1 [Compound D130]
4. O=S1(=O)C[C@H](NCc2ccco2)[C@@H](S(=O)(=O)c2cccs2)C1 [Compound D135]
5. O=S1(=O)C[C@H](N2CCCC2)[C@@H](S(=O)(=O)c2ccc(Cl)cc2)C1 [Compound D122]
6. O=S1(=O)C[C@H](N2CCCCC2)[C@@H](S(=O)(=O)c2cccs2)C1 [Compound D105]
7. CCCCN(C)[C@H]1CS(=O)(=O)C[C@@H]1S(=O)(=O)c1ccc(Cl)cc1 [Compound D132]

output:
[0.9, 1.1, 1.2, 0.7, 1.8, 1.5, 1.4]

Quick one: give me Firefly, F4, 10% FBS, cmpd/DMSO (mean) for each item below, same order please.
1. O=S1(=O)C[C@H](NCc2ccncc2)[C@@H](S(=O)(=O)c2cccs2)C1 [Compound D108]
2. CCCN[C@H]1CS(=O)(=O)C[C@@H]1S(=O)(=O)c1ccc(Cl)cc1 [Compound D117]
3. C[C@@H]1C[C@H](C)CN([C@H]2CS(=O)(=O)C[C@@H]2S(=O)(=O)c2cccs2)C1 [Compound D109]
4. CC(C)CN[C@H]1CS(=O)(=O)C[C@@H]1S(=O)(=O)c1ccc(Cl)cc1 [Compound D120]
5. COCCN[C@H]1CS(=O)(=O)C[C@@H]1S(=O)(=O)c1cccs1 [Compound D107]
6. CC(=O)Nc1ccc(S(=O)(=O)[C@H]2CS(=O)(=O)C[C@@H]2NC2CC2)cc1 [Compound D133]

output:
[1.0, 1.2, 1.4, 1.2, 1.4, 0.9]

###

Target: UniProt P11712
Sequence (P11712 whole entry): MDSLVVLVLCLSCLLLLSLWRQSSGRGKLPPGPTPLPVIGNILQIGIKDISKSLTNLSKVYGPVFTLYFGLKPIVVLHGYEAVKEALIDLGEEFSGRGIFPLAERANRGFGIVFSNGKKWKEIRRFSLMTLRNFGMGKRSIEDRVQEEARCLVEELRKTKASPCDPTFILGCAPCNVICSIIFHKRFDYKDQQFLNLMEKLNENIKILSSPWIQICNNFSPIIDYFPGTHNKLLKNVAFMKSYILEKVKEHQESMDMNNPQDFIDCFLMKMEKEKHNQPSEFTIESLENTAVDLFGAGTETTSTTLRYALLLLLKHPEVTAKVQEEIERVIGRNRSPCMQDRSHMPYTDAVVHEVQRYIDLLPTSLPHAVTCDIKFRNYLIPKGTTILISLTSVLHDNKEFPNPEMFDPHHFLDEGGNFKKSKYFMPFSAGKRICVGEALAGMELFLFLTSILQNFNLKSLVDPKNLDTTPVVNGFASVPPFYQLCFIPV
measured-parameter: IC50

input: # value lookup — system UniProt P11712, readout IC50, item COCCN[C@H]1CS(=O)(=O)C[C@@H]1S(=O)(=O)c1ccc(Cl)cc1 [Compound D136]
output: > 10 µM

###

Please provide measured Firefly F4, cmpd/DMSO (mean) for the entries that follow.
Target: NR2F6 (Homo sapiens, UniProt P10588)
Construct: expressed in transfected cells; also transient transfection
Sequence (P10588 1-404): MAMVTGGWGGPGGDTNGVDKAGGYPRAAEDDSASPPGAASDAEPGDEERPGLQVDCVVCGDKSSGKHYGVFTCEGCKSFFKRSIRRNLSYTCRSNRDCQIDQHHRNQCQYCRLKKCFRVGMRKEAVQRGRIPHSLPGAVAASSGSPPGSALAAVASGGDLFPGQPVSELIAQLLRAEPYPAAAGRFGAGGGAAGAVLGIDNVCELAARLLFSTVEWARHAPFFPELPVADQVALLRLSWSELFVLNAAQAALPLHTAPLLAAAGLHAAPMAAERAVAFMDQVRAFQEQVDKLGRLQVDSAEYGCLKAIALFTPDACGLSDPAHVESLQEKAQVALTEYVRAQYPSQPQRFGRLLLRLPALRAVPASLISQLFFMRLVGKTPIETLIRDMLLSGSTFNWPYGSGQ
Assay: NR2F6 agonist screening, Firefly signal cmpd/DMSO
Format: cell-based
Settings: 10 uM
Answers are plain numbers.

compound	study-system	measured-number
COCCN[C@H]1CS(=O)(=O)C[C@@H]1S(=O)(=O)c1ccc(Cl)cc1 [Compound D136]	NR2F6 (Homo sapiens, UniProt P10588)	2.7
O=S1(=O)C[C@H](NCc2ccco2)[C@@H](S(=O)(=O)c2cccs2)C1 [Compound D135]	NR2F6 (Homo sapiens, UniProt P10588)	1.9
O=S1(=O)C[C@H](NCCCc2ccccc2)[C@@H](S(=O)(=O)c2ccc(Cl)cc2)C1 [Compound D137]	NR2F6 (Homo sapiens, UniProt P10588)	2.0
O=S1(=O)C[C@H](N2CCCC2)[C@@H](S(=O)(=O)c2cccs2)C1 [Compound D104]	NR2F6 (Homo sapiens, UniProt P10588)	4.3
CC(C)OCCCN[C@H]1CS(=O)(=O)C[C@@H]1S(=O)(=O)c1ccc(Cl)cc1 [Compound D138]	NR2F6 (Homo sapiens, UniProt P10588)	2.6
O=S1(=O)C[C@H](NCC2CCCO2)[C@@H](S(=O)(=O)c2cccs2)C1 (stereo partly shown) [Compound D134]	NR2F6 (Homo sapiens, UniProt P10588)	2.1

input: I am curious: what Firefly F4, cmpd/DMSO (mean) value has been reported for CC(C)CCN[C@H]1CS(=O)(=O)C[C@@H]1S(=O)(=O)c1ccc(Cl)cc1 [Compound D131] ?
output: 4.3

###

Biological target: ERα (Homo sapiens)
Construct: expressed in transfected cells
Sequence (P03372 whole entry, species assumed): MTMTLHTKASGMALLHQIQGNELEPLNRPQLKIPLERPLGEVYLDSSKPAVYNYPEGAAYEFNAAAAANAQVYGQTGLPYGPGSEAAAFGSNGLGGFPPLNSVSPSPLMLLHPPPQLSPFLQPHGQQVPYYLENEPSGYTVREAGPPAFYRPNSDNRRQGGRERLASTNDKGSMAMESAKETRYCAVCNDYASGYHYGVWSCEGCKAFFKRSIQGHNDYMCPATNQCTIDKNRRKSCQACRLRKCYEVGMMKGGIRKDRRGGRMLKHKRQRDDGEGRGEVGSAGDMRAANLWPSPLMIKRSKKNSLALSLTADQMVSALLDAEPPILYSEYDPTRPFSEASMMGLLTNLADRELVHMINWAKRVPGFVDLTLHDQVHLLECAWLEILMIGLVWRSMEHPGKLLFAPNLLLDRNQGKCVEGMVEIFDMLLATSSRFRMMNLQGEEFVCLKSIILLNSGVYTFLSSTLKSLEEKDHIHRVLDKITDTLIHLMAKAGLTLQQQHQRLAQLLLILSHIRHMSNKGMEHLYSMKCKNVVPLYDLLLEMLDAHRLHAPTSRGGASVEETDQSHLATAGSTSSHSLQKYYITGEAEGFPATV
Assay: Counterscreening, Firefly signal with ERα transient transfection (Firefly_ERa)
Assay type: cell-based
Settings: 40 uM
measured-parameter: Firefly ERalpha transient, cmpd/DMSO (mean)
Answers are plain numbers.

compound	measured-number
CC(C)Nc1nc(N2CCCC2)nc(N2CCn3c(cccc3=O)C2)n1	1.3
CCOC(=O)c1cnc2c(Cl)cc(Cl)cc2c1NCCCN1CCCCC1	1.2
CCOC(=O)c1cnc2c(Cl)cc(Cl)cc2c1NCCCN1CCCC1	5.8

Quick one: give me Firefly ERalpha transient, cmpd/DMSO (mean) for each item below, same order please.
1. CNc1c(C#N)c(C(F)(F)F)nc2ccc(Oc3ccccc3)cc12
2. CCCCCCNc1nc(OCC)nc(N2CCn3c(cccc3=O)C2)n1
3. CCOC(=O)c1cnc2ccc(C)cc2c1NCCCN(C)C
4. COc1ccc(-c2cc3n(n2)C(N)=C(C#N)C(c2ccc(N4CCOCC4)cc2)(C(F)(F)F)N3)cc1OC (stereo not drawn)

output:
1. 0.4
2. 0.7
3. 8.8
4. 0.7

Quick one: give me Firefly ERalpha transient, cmpd/DMSO (mean) for each item below, same order please.
1. CC1CCN(c2nc(NCCN3CCOCC3)nc(N3CC4CC(C3)c3cccc(=O)n3C4)n2)CC1 (stereo not drawn)
2. Cc1cc(C)c2ncc(C(=O)N3CCCC3)c(NCCCN(C)C)c2c1

output:
1.2
1.5

Quick one: give me Firefly ERalpha transient, cmpd/DMSO (mean) for each item below, same order please.
1. N#Cc1c(C(F)(F)F)nc2ccc(Cl)cc2c1NC1CC1
2. O=c1cccc2n1CC1CC2CN(c2nc(Cl)nc(NCCN3CCOCC3)n2)C1 (stereo not drawn)
3. Cc1cc(C)nc(Nc2nc(-c3ccccc3)c(CC(=O)O)s2)n1
4. N#CC1=C(N)n2nc(-c3ccccc3)cc2NC1(c1ccc(N2CCOCC2)cc1)C(F)(F)F (stereo not drawn)
5. CC(C)Nc1nc(N2CCOCC2)nc(N2CCn3c(cccc3=O)C2)n1
6. CNC(=O)c1cnc2c(C)cc(C)cc2c1NCCCN(C)C
7. COC(=O)CNc1c(C#N)c(C(F)(F)F)nc2ccc(OC)cc12
8. COC(=O)c1[nH]c2c(c(C(F)(F)F)nc3ccc(OC)cc32)c1N

output:
[0.5, 1.2, 2.2, 0.4, 1.2, 1.4, 0.6, 1.7]

input: # value lookup — system ERα (Homo sapiens), readout Firefly ERalpha transient, cmpd/DMSO (mean), item Cc1cc(-c2ccccc2)nc(Nc2nc(-c3ccccc3)c(CC(=O)O)s2)n1
output: 1.3
